Task for the reader: assign each of the following substances its reported viability at 0.63 µM.
Assay: in vitro
Details: mouse, mouse tail fibroblast (MTF) cells
Ends that are not written are not given here.

Incoming: Could you share which viability at 0.63 µM value was measured for KGSFKAVTKAQKKFGKKRKRSRKSFSVYVYKVLKQ-NH2 [PN729] ?
Outgoing: 82%

Incoming: Could you share which viability at 0.63 µM value was measured for KGSFKAVTKAQKKDGKKRKRSFKFSYSVYVYKVLKQ-NH2 [PN647] ?
Outgoing: 85%

---

Task for the reader: assign each of the following substances its reported viability at 2.5 µM.
Assay: in vitro
Conditions: mouse, mouse tail fibroblast (MTF) cells
Ends that are not written are not given here.
I only need the number, in %, no unit after it.

Incoming: Could you share which viability at 2.5 µM value was measured for KGSFKAVTKAQKKDGKKRKRSFKFSYSVYVYKVLKQ-NH2 [PN647] ?
Outgoing: 88

Incoming: Could you share which viability at 2.5 µM value was measured for KGSFKAVTKAQKKFGKKRKRSRKSFSVYVYKVLKQ-NH2 [PN729] ?
Outgoing: 92

---

Tested on: primary mouse tail fibroblast (MTF) cells
Test: Peptide cell-uptake assay (FITC-labeled peptide, flow cytometry)
Type: cell-based
Settings: peptide 10 μM
Protocol: The efficacy of the full-length and truncated forms of polypeptide PN73 to enter cells was tested in vitro by a cell-uptake assay with primary mouse tail fibroblast (MTF) cells. The number of cells in culture that receive the FITC-labeled peptide was measured by flow cytometry. […] In addition, the Mean Fluorescence Intensity (MFI) was used to evaluate the quantity of FITC-labeled peptide found within cells. […]
Ends that are not written are not given here.
Measurement label: % Peptide Cell-Uptake

Incoming: Could you share which % Peptide Cell-Uptake value was measured for KRSRKESYSVYVYKVLKQ-GK[EPSILON-5CFG-amide (KRSRKESYSVYVYKVLKQG-{K(5CF)-Gly-NH2}) [PN654] ?
Outgoing: 95 (10 μM) %

Incoming: Could you share which % Peptide Cell-Uptake value was measured for SYSVYVYKVLKQ-GK[EPSILON-5CFG-amide (SYSVYVYKVLKQG-{K(5CF)-Gly-NH2}) [PN653] ?
Outgoing: 95 (10 μM) %

Incoming: Could you share which % Peptide Cell-Uptake value was measured for YKVLKQ-GK[EPSILON-5CFG-amide [PN651] ?
Outgoing: 90 (10 μM) %

Incoming: Could you share which % Peptide Cell-Uptake value was measured for VYVYKVLKQ-GK[EPSILON-5CFG-amide (VYVYKVLKQG-{K(5CF)-Gly-NH2}) [PN652] ?
Outgoing: 86 (10 μM) %

---

Assay: in vitro
Settings: mouse, mouse tail fibroblast (MTF) cells
Ends that are not written are not given here.
Measurement label: viability at 5 µM (%)
I only need the number, in %, no unit after it.

Incoming: Could you share which viability at 5 µM value was measured for KGSFKAVTKAQKKFGKKRKRSRKSFSVYVYKVLKQ-NH2 [PN729] ?
Outgoing: 90

Incoming: Could you share which viability at 5 µM value was measured for KGSFKAVTKAQKKDGKKRKRSFKFSYSVYVYKVLKQ-NH2 [PN647] ?
Outgoing: 87

---

Test system: primary mouse tail fibroblast (MTF) cells
Assay: Peptide cell-uptake assay (FITC-labeled peptide, flow cytometry)
Assay type: cell-based
Conditions: peptide 10 μM; relative values
Ends that are not written are not given here.
Task for the reader: assign each of the following substances its reported Peptide FITC MFI.

Incoming: Could you share which Peptide FITC MFI value was measured for YKVLKQ-GK[EPSILON-5CFG-amide [PN651] ?
Outgoing: 5 (10 μM)

Incoming: Could you share which Peptide FITC MFI value was measured for VYVYKVLKQ-GK[EPSILON-5CFG-amide (VYVYKVLKQG-{K(5CF)-Gly-NH2}) [PN652] ?
Outgoing: 5 (10 μM)

Incoming: Could you share which Peptide FITC MFI value was measured for KRSRKESYSVYVYKVLKQ-GK[EPSILON-5CFG-amide (KRSRKESYSVYVYKVLKQG-{K(5CF)-Gly-NH2}) [PN654] ?
Outgoing: 10 (10 μM)

Incoming: Could you share which Peptide FITC MFI value was measured for SYSVYVYKVLKQ-GK[EPSILON-5CFG-amide (SYSVYVYKVLKQG-{K(5CF)-Gly-NH2}) [PN653] ?
Outgoing: 8 (10 μM)
